Test system: DMS-114
Experiment: NCI tumour cell line growth inhibition, 48 h
Calls of active or inactive are those of the source. Cut-off read from the data, not from the text of the source: active = GI50 up to about 1.1 µM and inactive = higher.
measurement.name: GI50

# compound, GI50
data = [
    ("O=C(NS(=O)(=O)c1ccccc1)C(Cc1ccccc1)C(Cc1ccccc1)C(=O)NS(=O)(=O)c1ccccc1 (stereo not given)", "> 100 µM (inactive)"),
]

Dear reader, for each entry below, please note its GI50.
1. C=C1CC(OC)(C(OC)C(=O)N[C@H]2OCO[C@H]3C2O[C@H](C[C@@H](COC)OC)C(C)(C)C3OC)O[C@H](C)[C@@H]1C (stereo not given in full)
2. COc1cccc(/C=C(/C(=O)O)c2cc(OC)c(OC)c(OC)c2)c1
3. CC(=O)OC1C(CCl)OC(N=[N+]=[N-])C(OC(C)=O)C1OC(C)=O (stereo not given)
4. Cc1cccc(C)c1NC(=O)CCc1n[nH]c(=S)o1

A)
1.22 µM (inactive)
> 100 µM (inactive)
> 100 µM (inactive)
39.1 µM (inactive)

---

Test system: SF-295
Experiment: NCI tumour cell line growth inhibition, 48 h
The source made the active and inactive calls. Rule as the data show it: active = GI50 up to about 1.1 µM and inactive = higher.
measurement.name: GI50

Consider the worked cases shown below.
# compound, measurement.target, data.value
data = [
    ("O=C(Oc1cncc(Cl)c1)c1cc2ccccc2sc1=O", "SF-295", "96.2 µM (inactive)"),
    ("O=C1c2cc3c(cc2CC12Cc1ccc4c(c1C2=O)CCC4)CCCC3 (stereo not drawn)", "SF-295", "> 100 µM (inactive)"),
    ("COC/C=C\\[C@]1(O)CCCC[C@@H]1CC(OC)OC", "SF-295", "> 100 µM (inactive)"),
]

Dear reader, for each entry below, please note its GI50.
1. O=C1c2ccc3c4ccccc4n(Cc4ccccc4)c3c2C(=O)N1c1ccccc1
2. CC1(C)OC2[C@@H](CO[C@@]3([C@@H](O)CCO)OC(C)(C)O[C@@H]23)O1 (stereo partly drawn)
3. CCOC(=O)C1OC(=O)CC1C1(C(=O)OCC)C=CC(=O)O1 (stereo not drawn)
4. CC1=CC(C/C(C)=C/COc2ccc3ccc(=O)oc3c2)OC1=O (stereo not drawn)

A)
1. 14.7 µM (inactive)
2. > 100 µM (inactive)
3. > 100 µM (inactive)
4. > 100 µM (inactive)

Dear reader, for each entry below, please note its GI50.
1. CC(C)(C)CC(C)(C)c1ccc(OCCOCC[N+](C)(C)Cc2ccccc2)cc1 [BENZETHONIUM CHLORIDE]
2. COC(=O)/C(=N\NC(=S)NN)C(C(=O)C(=O)Nc1ccccc1C(N)=O)c1nc2ccccc2nc1O (stereo not drawn)
3. O=C(O)/C(=C/C=C/c1ccccc1)c1csc(-c2nc(/C(=C\C=C\c3ccccc3)C(=O)O)cs2)n1
4. COc1ccc(-c2c(-c3ccccc3)c(C)c3ccccn23)cc1

A)
1. 11 µM (inactive)
2. > 100 µM (inactive)
3. 31.6 µM (inactive)
4. > 100 µM (inactive)

Dear reader, for each entry below, please note its GI50.
1. CC(C)C(NCc1c2ccccc2[n+]([O-])c2ccccc12)C(=O)O (stereo not drawn)
2. CC1=CC(O)CC(C)(C)C1/C=C/C(C)=C/C=C/C(C)=C/C=C/C=C(C)/C=C/C=C(C)/C=C/C1=C(C)CC(O)CC1(C)C (stereo not drawn)

A)
1: > 100 µM (inactive); 2: 23.9 µM (inactive)

---

Tested on: UACC-62
Test: NCI tumour cell line growth inhibition, 48 h
Activity calls are given as the source filed them. Cut-off read from the data, not from the text of the source: active = GI50 up to about 1.1 µM and inactive = higher.
Task for the reader: assign each of the following compounds its reported GI50.

# compound, measurement.target, GI50
records = [
    ("CCOC(=O)C1(c2ccccc2)CCCNCC1 (stereo not given)", "UACC-62", "> 100 µM (inactive)"),
    ("O=C1C2c3[nH]c4ccccc4c3C3CCSCC3C2C(=O)N1c1ccccc1 (stereo not given)", "UACC-62", "> 100 µM (inactive)"),
    ("O=c1cc(N2CCCC2)[nH]c(=O)n1-c1ccc(Cl)cc1", "UACC-62", "> 100 µM (inactive)"),
    ("CCCC(=O)Nc1cc2c3c(c1)CCCN3CCC2", "UACC-62", "> 10 µM (inactive)"),
    ("COCCN(C(=O)c1ccccc1)C1CCC(=O)c2[nH]c3ccccc3c21 (stereo not given)", "UACC-62", "17.8 µM (inactive)"),
]

Dear reader, for each entry below, please note its GI50.
1. Cc1ccc(C2=Nc3ccccc3SC(c3cccc4c3OCO4)C2)cc1 (stereo not given)
2. COC12OC3(C4OC41)C(C(=O)O[C@H]3CO[Si](C)(C)C(C)(C)C)C2C(=O)Oc1ccccc1 (stereo not given in full)
3. COc1cc2c(cc1C)NC(=O)/C2=C\c1ccncc1
4. CCOC(=O)CCC(NC(=O)c1ccc(OCc2nc3ccccc3n3cccc23)cc1)C(=O)OCC (stereo not given)
5. Cn1c2ccccc2c(=O)c2cccc(C(=O)NCC(=O)O)c21

A)
["20.3 µM (inactive)", "> 100 µM (inactive)", "5.53 µM (inactive)", "> 100 µM (inactive)", "> 100 µM (inactive)"]

---

Task for the reader: assign each of the following compounds its reported GI50.
System: MDA-MB-231
Test: NCI tumour cell line growth inhibition, 48 h
Calls of active or inactive are those of the source. No stated cut-off is given here; in the data, active = GI50 up to about 1.1 µM and inactive = higher.

# compound, GI50
data = [
    ("COC1CC(C)(NC(=O)C(F)(F)F)C2OC(c3ccccc3)OCC2O1 (stereo not drawn)", "> 100 µM (inactive)"),
    ("CC1=CC(C/C(C)=C/COc2ccc3ccc(=O)oc3c2)OC1=O (stereo not drawn)", "5.66 µM (inactive)"),
]

Q) Report measured GI50; entry is O=c1c(C(c2ccc(/C=C/c3ccccc3)cc2)c2c(O)oc3ccccc3c2=O)c(O)oc2ccccc12
A) 28.7 µM (inactive)

---

Task for the reader: assign each of the following molecules its reported GI50.
System: U-251
Test: NCI tumour cell line growth inhibition, 48 h
The source made the active and inactive calls. No stated cut-off is given here; in the data, active = GI50 up to about 1.1 µM and inactive = higher.

# molecule, measurement.target, measurement.name, data.value
records = [
    ("COC12OC3(C4OC41)C(C(=O)O[C@H]3CO[Si](C)(C)C(C)(C)C)C2C(=O)Oc1ccccc1 (some centres undefined)", "U-251", "GI50", "> 100 µM (inactive)"),
    ("NC(=S)N/N=C1\\C(=O)N(c2cccc([N+](=O)[O-])c2)C(=O)C1C(=O)Nc1cccc([N+](=O)[O-])c1 (centres undefined)", "U-251", "GI50", "> 100 µM (inactive)"),
    ("CN(Cc1c2ccccc2cc2ccccc12)S(=O)(=O)c1ccc(-c2c3nc(c(-c4ccc(S(=O)(=O)N(C)Cc5c6ccccc6cc6ccccc56)cc4)c4ccc([nH]4)c(-c4ccc(S(=O)(=O)N(C)Cc5c6ccccc6cc6ccccc56)cc4)c4nc(c(-c5ccc(S(=O)(=O)N(C)Cc6c7ccccc7cc7ccccc67)cc5)c5ccc2[nH]5)C=C4)C=C3)cc1", "U-251", "GI50", "47.2 µM (inactive)"),
]

Q) Report measured GI50; entry is O=C1CC2c3ccccc3CCC2c2ccccc21 (centres undefined)
A) 34.8 µM (inactive)

---

Task for the reader: assign each of the following molecules its reported GI50.
System: CAKI-1
Assay: NCI tumour cell line growth inhibition, 48 h
Activity calls are given as the source filed them. Rule as the data show it: active = GI50 up to about 1.1 µM and inactive = higher.

# molecule, measurement.target, GI50
data = [
    ("CC1(C)CNC(=O)C2(CCCO2)CNC(C)(C)CNC(=O)C2(CCCO2)CN1 (stereo not drawn)", "CAKI-1", "> 10 µM (inactive)"),
    ("C[N+]1(C)CN(c2ccccc2)C2(CCN(CCCC(=O)c3cccs3)CC2)C1=O", "CAKI-1", "> 100 µM (inactive)"),
]

// next item, GI50 requested
Q) Report measured GI50; entry is COc1ccc(NC(=S)c2ccc([N+](=O)[O-])o2)cc1
A) 3.44 µM (inactive)

---

System: NCI/ADR-RES
Test: NCI tumour cell line growth inhibition, 48 h
Calls of active or inactive are those of the source. Rule as the data show it: active = GI50 up to about 1.1 µM and inactive = higher.
Your reply should match one of these outcome classes. active, inactive

As a guide, the following entries are already answered.
# molecule, category.label
rows = [
    ("COc1cc2c(cc1C)NC(=O)/C2=C/c1c(Cl)n(-c2ccccc2)c2ccccc12", "inactive"),
    ("COc1cc2c(cc1OC)C(=O)C1(C2)[C@H](c2ccccc2)C2C(=O)c3cc(OC)c(OC)cc3C2[C@H]1c1ccccc1 (stereo not given in full)", "inactive"),
    ("COc1ccc(C2C3CCc4ccccc4C3=NN2S(=O)(=O)c2cccc(C(=O)O)c2OC)cc1 (stereo not given)", "inactive"),
    ("CCCC(=O)Nc1cc(/C=C/C(=O)N2C[C@H]3C[C@@]34C2=CC(=O)c2[nH]cc(C)c24)n(C)c1", "active"),
    ("CS(=O)(=O)c1nc(-c2cc3c(c(S(C)(=O)=O)n2)CCC3)cc2c1CCC2", "inactive"),
]

Q) // param item: CC(=O)OCC1OC(n2c(C)c(/N=N/c3ccc(C)cc3)c(C)c(C#N)c2=S)C(OC(C)=O)C(OC(C)=O)C1OC(C)=O (stereo not given) ; yields the recorded call
A) inactive

Q) // param item: CC1=CC(O)CC(C)(C)C1/C=C/C(C)=C/C=C/C(C)=C/C=C/C=C(C)/C=C/C=C(C)/C=C/C1=C(C)CC(O)CC1(C)C (stereo not given) ; yields the recorded call
A) inactive

Q) // param item: COc1ccccc1N1C(=O)/C(=C\c2cccc(Oc3ccccc3)c2)SC1c1ccccc1 (stereo not given) ; yields the recorded call
A) inactive

Q) // param item: CC1=C(C)C(=O)C2=C(OCCO2)C1=O ; yields the recorded call
A) inactive

Q) // param item: O=C1/C(=C/c2cccs2)NC(=S)N1CN1CCOCC1 ; yields the recorded call
A) inactive

Taken from ChEMBL document CHEMBL1201862.
